assay: First-in-human SAD and MAD study, pharmacokinetics; type: in vivo; details: human, plasma, oral; SAD, 5 mg fasted, N=3, Mean ± SD; read-out: T1/2 (converted)
measurement-name: half-life (h)
Dear colleague, please return just the value in h, with no unit written.

Entry Cc1cc(N2CCc3cc(F)ccc3C2)cc(C)c1NC(=O)CC(C)(C)C — recorded half-life = 49.2

---

assay: First-in-human SAD and MAD study, pharmacokinetics; type: in vivo; details: human, plasma, oral, 25 mg, MAD, 25 mg QD Fed, Day 1, N=6, mean
measurement-name: Tmax (h)
Write the answer as a number in h, unit excluded.

// recorded Tmax for Cc1cc(N2CCc3cc(F)ccc3C2)cc(C)c1NC(=O)CC(C)(C)C [Compound A] : 4.38
